# protocol_notes: soluble fraction after stress (log2 fold change); higher = more stays soluble; pooled small domains, quantitative proteomics;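 note: 20 min heating vs room temperature control held 20 min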
# condition_parameters: stress: 75 degC
Please go through the items and note down their soluble fraction (log2).

query: Quick check: soluble fraction (log2) of `HMNASTVTLENFEGAKYDDVYGKYDYQFSVTYEQTDKYESGVIISQKPEAGTKIIKGSQVSLVVAT` ?
result: 0.115

query: Quick check: soluble fraction (log2) of `HMRESRLFQILYQLLTKKKVTAANLAKQFEVSVRTIYRDIDALSSSGIPIYASQGKNGGIQLDEDF` ?
result: -0.992

query: Quick check: soluble fraction (log2) of `HMDNTFEEVKEKLLDLLKERPLTPAEVSKRMEEDKNILAQVIQYLLEEEIIKTEDGMLSKVIG` ?
result: -0.038

query: Quick check: soluble fraction (log2) of `HMLRTLSTSEFAEAIGISESSARRLADSGDLRIRRTKGGHRKIPAEEAIRYAREIQATVVRPDLLGLST` ?
result: -0.0139

* * *

# protocol_notes: soluble fraction after stress (log2 fold change); higher = more stays soluble; pooled small domains, quantitative proteomics
# condition_parameters: stress: 75 degC
Please go through the items and note down their soluble fraction (log2).
# answer = number (no unit)

query: Quick check: soluble fraction (log2) of `HMQISDSASVKTVVAEAIAANPKAVADFMNGKDTATRYLVGQVMKITKGQAKPELVNQLVLESLAELKEK` ?
result: 0.361

query: Quick check: soluble fraction (log2) of `HMISFHEYLTQLLDEKGLTKAQVITDSNIQKNYGYQIFDGSKTPSRDKVIAIALAMQLTLDEANRLLHLSN` ?
result: -1.75

query: Quick check: soluble fraction (log2) of `HMQHYQFEVDEASSKKRLDVFLSENLPEISRSRLKKLIDEKRVTVNEMSRPAGYKVRVKEKIEFHIPPL` ?
result: -0.718

query: Quick check: soluble fraction (log2) of `HMFSDDEINRLKARDSILVNLRDSEKQVWELYTDGKTVQNIANQLNKHKQSISATIINIKNKISRKQNMLK` ?
result: -0.709

query: Quick check: soluble fraction (log2) of `HMYEVVPNMKGLSYEQAATALRTAGLEPELSDSIYDDKTRPGTVLEQSPRANTKVKPGRTVYLTVNAF` ?
result: 0.0171

query: Quick check: soluble fraction (log2) of `HMSKRDDLLDQASEWLAKLDRDLTVVEERELKAWLGESAAHRETFIQMAKLWDKMESLSRLTDL` ?
result: -0.898

query: Quick check: soluble fraction (log2) of `HMTETIPVSERLFRYLFEEKGKRVQKIQQTSHARVRMERSPYSVVVSGTKDAVEAAMESLKATEKELLEA` ?
result: -0.161

query: Quick check: soluble fraction (log2) of `HMYNKKAYVNTNSDFLNVRSEASTESSVVDKLARGTEVNIVGNIQNGFYPIVLNEKNAWVSSDWISFEKPT` ?
result: 0.053

query: Quick check: soluble fraction (log2) of `HMQIYSQEIYDAQKVLKELGLYTSDLDGLNGPGTKRALRNFQSKSGLNADGVLGPLTKSALDKGEESYITV` ?
result: -0.0827

query: Quick check: soluble fraction (log2) of `HMEPLVSKVFQVSYQKTADLVALIKSEDSKLLSARGTLISDERTSQIFVQDTPTRLERISMIVNGL` ?
result: -0.889

query: Quick check: soluble fraction (log2) of `HMSSNLTVFTRNNAIIVNSDVVRKLNVFAVDGRLVRSVDLSVGENVINNISRGMYLIDKQKVVV` ?
result: -2.77

query: Quick check: soluble fraction (log2) of `HMHAGQIISQKIKESGISISHVAKHLKVQRATLYNLFEREVWPAHRLRTIEALLHIDLSDLYP` ?
result: -2.61
